The measured values listed here are drawn from the RNAGym collection of RNA variant scans (doi:10.7554/elife.80360).

What self-cleavage was measured for each of the following?
B1: Hairpin Ribozyme (parent)
chain: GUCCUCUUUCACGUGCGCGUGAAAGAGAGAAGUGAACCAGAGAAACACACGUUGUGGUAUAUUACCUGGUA

Variants of: B1
Assay: self-cleavage, relative activity (ratio to wild type); higher = more cleavage; co-transcriptional
Answer with a bare number; do not write a unit.

Input: If you can, please state the reported self-cleavage value of G1U A22G .
Output: 0.101

Input: Then U7G A24C ?
Output: 0.677

Input: Then G51A G56A ?
Output: 0.197

Input: Then C50U U67G ?
Output: 0.181

Input: Then G27U G57U ?
Output: 0.144

Input: Then C16G A28U ?
Output: 0.483

Input: Then U67C A71U ?
Output: 0.224

Input: Then C46G G68C ?
Output: 0.13

Input: Then U7A G21A ?
Output: 0.706

Input: Then U2C A31G ?
Output: 0

Input: Then U8A C18G ?
Output: 0.524

Input: Then A26U G57U ?
Output: 0.143

Input: Then G21A U70A ?
Output: 0.742

Input: Then A24G A35C ?
Output: 0.82

Input: Then U9A U67C ?
Output: 0.174

Input: Then A35C A43G ?
Output: 0.155

Input: Then G68C U70C ?
Output: 0.339

Input: Then C16G G68A ?
Output: 0.243

Input: Then A47G U52G ?
Output: 0.259

Input: Then C38U C50G ?
Output: 0.0694

Input: Then C12G G54C ?
Output: 0.246

Input: Then G19A A23G ?
Output: 0.948
